Provenance of the data: PubChem BioAssay AID1259407

Test system: CCRIS mutagenicity, Ames/micronucleus/aberration tests
EXPERIMENT: CCRIS mutagenicity studies
REPORTED_CONDITIONS: Test System: AMES SALMONELLA TYPHIMURIUM; Strain/Indicator: TA100(NR); Metabolic Activation: NONE; Method: PREINCUBATION
Active and inactive are the calls of the source. The rule behind the calls is not given here.
The reply should be one of these categories: active, inactive

> print(dat)
                                chem.smiles                          target.or.system  label.value
1  O=[N+]([O-])c1ccc(Nc2ncnc3c2ncn3-c2ccc([N+](=O)[O-])cc2)cc1  CCRIS mutagenicity, Ames/micronucleus/aberration tests     inactive
2                           CCOc1ccc(NO)cc1  CCRIS mutagenicity, Ames/micronucleus/aberration tests     inactive

Q: Name the outcome recorded for `C=COc1ccc([N+](=O)[O-])cc1` in the assay.
Result: inactive

Q: # repeat for `O=C/C=C/c1ccco1`
Result: inactive

Q: Another molecule to look at: `O=C(/C=C/c1ccc([N+](=O)[O-])cc1)c1ccccc1`
Result: inactive

Q: Input `CC(=O)Nc1ccc(Oc2ccc(NO)cc2)cc1`
Result: active

Q: # repeat for `O=Cc1ccc([N+](=O)[O-])o1`
Result: active

Q: Follow-up item: `Nc1nc(-c2ccc([N+](=O)[O-])cc2)nc2c1ncn2[C@H]1C[C@H](O)[C@@H](CO)O1`
Result: active

====

Test system: CCRIS mutagenicity, Ames/micronucleus/aberration tests
EXPERIMENT: CCRIS mutagenicity studies
REPORTED_CONDITIONS: Test System: AMES SALMONELLA TYPHIMURIUM; Strain/Indicator: TA100; Metabolic Activation: RAT, LIVER, S-9, PCB; Method: STANDARD PLATE
From the text: The CCRIS database contains chemical records with carcinogenicity, mutagenicity, tumor promotion, and tumor inhibition test results. It was developed by the National Cancer Institute (NCI). Data are derived from studies cited in primary journals, current awareness tools, NCI reports, and other sources. Test results have been reviewed by experts in carcinogenesis and mutagenesis. CCRIS provides historical information from the years 1985 - 2011. It is no longer updated. […]
The source made the active and inactive calls. No rule for the calls is given here.
Tick one outcome: active, inactive

Here are 5 compounds together with their reported answers.
> print(dat)
                                chem.smiles  label.value
1                          O=C1C=CC(=O)C=C1     inactive
2                O=C1c2ccccc2C(=O)c2ccccc21     inactive
3  COc1ccc2c(c1)c(CC(=O)O)c(C)n2C(=O)c1ccc(Cl)cc1     inactive
4                     Cc1ccc2cc3ccccc3cc2c1     inactive
5                     O=C1C=CC(=O)c2ccccc21     inactive

Q: Look up the recorded call for `c1ccc2ncccc2c1` in this test.
Result: active

Q: Please answer likewise for `OC(CCl)CCl`
Result: active

====

Tested on: CCRIS mutagenicity, Ames/micronucleus/aberration tests
EXPERIMENT: CCRIS mutagenicity studies
REPORTED_CONDITIONS: Test System: AMES SALMONELLA TYPHIMURIUM; Strain/Indicator: TA100; Metabolic Activation: RAT, LIVER, S-9, AROCLOR 1254; Method: STANDARD PLATE
Calls of active or inactive are those of the source. The rule behind the calls is not given here.
# output must be one of active, inactive

Example entries and their recorded answers appear below.
> print(dat)
                  chem.smiles                          target.or.system  label.value
1  Cc1ccc(N(N)c2ccc(C)cc2)cc1  CCRIS mutagenicity, Ames/micronucleus/aberration tests       active
2     Nc1ccc(Cl)c(C(F)(F)F)c1  CCRIS mutagenicity, Ames/micronucleus/aberration tests     inactive
3                 N#Cc1ccccc1  CCRIS mutagenicity, Ames/micronucleus/aberration tests     inactive

Q: For `N[C@@H]1C[C@H]1c1ccccc1` , what call appears in the results of this test?
Result: inactive

Q: Item: `COc1ccc(N)c(OC)c1`
Result: inactive

Q: And `Cc1cc(O)c2c(c1)C(=O)c1c(c(O)cc(O)c1-c1c(O)cc(O)c3c1C(=O)c1cc(C)cc(O)c1C3=O)C2=O` ?
Result: inactive

Q: Do the same for `Nc1ccc(Cl)c(Cl)c1Cl` please
Result: inactive

====

Test system: CCRIS mutagenicity, Ames/micronucleus/aberration tests
EXPERIMENT: CCRIS mutagenicity studies
REPORTED_CONDITIONS: Test System: AMES SALMONELLA TYPHIMURIUM; Strain/Indicator: TA100; Metabolic Activation: RAT, LIVER, S-9, AROCLOR 1254; Method: STANDARD PLATE
Activity calls are given as the source filed them. How the calls were made is not given here.
Permitted responses: True (active), False (inactive)

> print(dat)
                                    compound  label.value
 1  CCCC(=O)Nc1ccc(OCC(O)CNC(C)C)c(C(C)=O)c1 (stereo unspecified)        False
 2                 O=c1c2cccc3ccc4cccc1c4c32         True
 3  COc1cc2c(c3oc4cccc(O)c4c(=O)c13)[C@@H]1C=CO[C@@H]1O2         True
 4             O=C(Cl)c1ccc([N+](=O)[O-])cc1        False
 5  CC(C)=CCc1ccc(O)c2c(=O)c3c(O)c4c(cc3oc12)O[C@H]1OC=C[C@@]41O         True
 6  COC(=O)Nc1nc2ccc(OS(=O)(=O)c3ccc(F)cc3)cc2[nH]1        False
 7  Cc1ccc(OS(=O)(=O)c2cccc3cccnc23)c([N+](=O)[O-])c1         True
 8  C#C[C@]1(O)CC[C@H]2[C@@H]3CCC4=C(CCC(=O)C4)[C@H]3CC[C@@]21C        False
 9         O=C1C=Cc2c(ccc3c2ccc2ccccc23)C1=O        False
10                        COc1cc(N)c(OC)cc1N         True

Consider the record given below.
Q: Hi team, can someone confirm the assay call for `O=C(CCc1ccc(O)cc1)c1c(O)cc(O)cc1O` ?
Result: False

====

System: CCRIS mutagenicity, Ames/micronucleus/aberration tests
EXPERIMENT: CCRIS mutagenicity studies
REPORTED_CONDITIONS: Test System: AMES SALMONELLA TYPHIMURIUM; Strain/Indicator: TA100; Metabolic Activation: RAT, LIVER, MICROSOMES, PHENOBARBITAL; Method: STANDARD PLATE
The source made the active and inactive calls. The rule behind the calls is not given here.
Choose one outcome from this list and give only that: yes (1) = active, no (0) = inactive

Look over these answered cases.
> print(dat)
                                   compound  label.value
1  COc1cc2c(c3oc4cccc(O)c4c(=O)c13)[C@@H]1C=CO[C@@H]1O2      yes (1)
2                               BrCC(Br)CBr       no (0)

Q: Could you check what this test reported for ClCC(Br)CBr (stereo not given) ?
Result: no (0)

Q: Try the compound `C[C@H]1CCCC(=O)CCC/C=C/c2cc(O)cc(O)c2C(=O)O1`
Result: no (0)

Q: Queued: `O=c1cc(CO)occ1O`
Result: yes (1)

====

Test system: CCRIS mutagenicity, Ames/micronucleus/aberration tests
EXPERIMENT: CCRIS mutagenicity studies
REPORTED_CONDITIONS: Test System: AMES SALMONELLA TYPHIMURIUM; Strain/Indicator: TA97; Metabolic Activation: NONE
Active and inactive are the calls of the source. No rule for the calls is given here.
Entry note: the call must match one of True for active, False for inactive

Q: Please state the recorded outcome for this compound: `C#CCO`
Result: False

Q: Cool, now `C[As+](C)(C)CC(=O)[O-]`
Result: False

Q: Here is the next compound: `C/C=C/C1=CC(=O)[C@]23C[C@H]2C(C)(C)O[C@]3(O)C1=O`
Result: True

Q: Thanks! And `C/C=C\C1=CC(=O)[C@]23C[C@H]2C(C)(C)O[C@]3(O)C1=O` ?
Result: False

Q: Try this compound too: `C/C=C(\Cl)C1=C(Cl)C(=O)[C@]23C[C@H]2C(C)(C)O[C@]3(O)C1=O`
Result: False

Q: How about `O=[N+]([O-])c1ccc2c3c(cccc13)-c1ccccc1-2` ?
Result: True

Q: Same for `Nc1ccccc1[N+](=O)[O-]`
Result: False

Q: Item: `N[C@@H](CCC(=O)NNc1ccc(CO)cc1)C(=O)O`
Result: True
